# system: RBD-FH, monomeric RBD (332-534) with a FLAG peptide and an 8xHis-tag at the C-terminus (SARS-CoV-2, UniProt P0DTC2 332-534)
Please respond with reported koff for every item in the list.
Give bare numbers, in s⁻¹.

Would you please look over these solved cases?
# binder, assayReadout, readoutUnits, dataValue
data = [
    ("Nb 2.11 (VHH) VHH: QVQLVESGGGSVQAGGSLRLSCAASGDASNRKCVSWFRRAPGKEREGVALIFPVGSSTAYADSVKGRFTISQDSAKDTVYLQMNNLKPEDSGTYYCAAVSWGGRCNLETQTVTFWGQGTQVTVSS", "koff", "s⁻¹", 0.0054),
    ("Nb 1.16 (VHH) VHH: QVQLVESGGGSVQAGGSLRLSCAASGNTSKRKCVGWFRRAPGKEREGVTLIYTVGGSTVYADSVKGRFTISQDNAKDTVYLQMNSLKPEDSAMYYCAAESWGRQCNLETHRFTFWGQGTQVTVSS", "koff", "s⁻¹", 0.00705),
    ("Nb 2.1 (VHH) VHH: QVQLVESGGGSVQAGGSLRLSCAAFGATISSAHMGWFRQAPGKEREGVAFRYTDGSSTYYTTSVRGRFTISQDNAKNTVYLQMNSLKPEDTAMYYCASNPSWGRLVGGQYNNWGQGTQITVSS", "koff", "s⁻¹", 0.00233),
]

Below is a list of binders. For each, state its recorded koff.
1. Nb 2.20 (VHH) VHH: QVQLVESGGGSVQAGGSLRLSCAASGYTYNNYYMGWFRQAPGKEREGVAAINSDGLDTYVADSVKGRFTISRDNAKDTVHLQMNSLKPEDTAIYSCATGRTVYYSGYDFRLSVDDYWGQGTQVTVSS
2. Nb 1.26 (VHH) VHH: QVQLVESGGGLVQAGGSLRLSCAATGYTWSSVCMGWFRQAPGKEREGVAGIPSGRNRPYYADSVKGRFTISQDNAKNAVFLLMNSLKPEDTAIYYCAPCSAPHDPEYNYWGQGTQVTVSS

Marked response:
1. 0.00101
2. 0.000624

Exam item: Answer with the recorded koff for the binder listed here: Nb 1.29 (VHH) VHH: QVQLVESGGGSVQAGGSLRLSCAASGYTINTDAVAWFRQAPGKGDERVAVIYTGSGNTNYADSVKGRFTISQDNAKNTVYLQMNSLKPEDTALYYCASGYYGASGYDFNNWGQGTQVTVSS
Marked response: 0.00614
